molecules and their reported minimum inhibitory concentration (MIC)
Tested on: Bacillus subtilis PCI 219
Test: MIC, two-fold agar dilution method
Format: cell-based
Conditions: nutrient agar
Just the number, please, no unit after it.

Observe how each entry below is paired with its result.
{"molecule": "Cc1c(N)nc([C@H](CC(N)=O)NC[C@H](N)C(N)=O)nc1C(=O)N[C@H](C(=O)N[C@H](C)[C@@H](O)CC(=O)N[C@H](C(=O)NC(O[C@@H]1O[C@@H](C)[C@@H](N)[C@@H](O)[C@H]1O)C(O)c1nc(-c2nc(C(=O)NCCCCN)cs2)cs1)[C@@H](C)O)[C@@H](O[C@@H]1O[C@@H](CO)[C@@H](O)[C@H](O)[C@@H]1O[C@H]1O[C@H](CO)[C@@H](O)[C@H](OC(N)=O)[C@@H]1O)c1cnc[nH]1 (some centres unmarked) [Tallysomycin S10b]", "val": 0.2}
{"molecule": "Cc1c(N)nc(C(CC(N)=O)NCC(N)C(N)=O)nc1C(=O)NC(C(=O)NC(C)C(O)CC(=O)NC(C(=O)NC(OC1OC(C)C(N)C(O)C1O)C(O)c1nc(-c2nc(C(=O)NCC(O)CN)cs2)cs1)C(C)O)C(OC1OC(CO)C(O)C(O)C1OC1OC(CO)C(O)C(OC(N)=O)C1O)c1c[nH]cn1 (centres unmarked) [Tallysomycin S4b]", "val": 0.006}

Qu. What measured minimum inhibitory concentration (MIC) goes with Cc1c(N)nc(C(CC(N)=O)NCC(N)C(N)=O)nc1C(=O)NC(C(=O)NC(C)C(O)CC(=O)NC(C(=O)NC(OC1OC(C)C(N)C(O)C1O)C(O)c1nc(-c2nc(C(=O)NCCCC(N)CC(=O)NCCCNC(C)c3ccccc3)cs2)cs1)C(C)O)C(OC1OC(CO)C(O)C(O)C1OC1OC(CO)C(O)C(OC(N)=O)C1O)c1c[nH]cn1 (centres unmarked) [Tallysomycin S14a] ?
Ans. 0.1

Qu. Entry Cc1c(N)nc(C(CC(N)=O)NCC(N)C(N)=O)nc1C(=O)NC(C(=O)NC(C)C(O)CC(=O)NC(C(=O)NC(OC1OC(C)C(N)C(O)C1O)C(O)c1nc(-c2nc(C(=O)NCCCN3CCCCC3C)cs2)cs1)C(C)O)C(OC1OC(CO)C(O)C(O)C1OC1OC(CO)C(O)C(OC(N)=O)C1O)c1c[nH]cn1 (centres unmarked) [Tallysomycin S13b] : reported minimum inhibitory concentration (MIC) = ?
Ans. 0.8

Qu. What value of minimum inhibitory concentration (MIC) has been reported for the following molecule? Cc1c(N)nc(C(CC(N)=O)NCC(N)C(N)=O)nc1C(=O)NC(C(=O)NC(C)C(O)CC(=O)NC(C(=O)NC(OC1OC(C)C(N)C(O)C1O)C(O)c1nc(-c2nc(C(=O)NCCCC(N)CC(=O)NCCCNCCO)cs2)cs1)C(C)O)C(OC1OC(CO)C(O)C(O)C1OC1OC(CO)C(O)C(OC(N)=O)C1O)c1c[nH]cn1 (centres unmarked) [Tallysomycin S6a]
Ans. 0.03

###

// values below are reported Antitumor therapeutic index B16
Tested on: Melanotic melanoma B16
Test: Antitumor activity in mice, melanotic melanoma B16
Format: in vivo, BDF1 mice
Conditions: single dose LD50/ID50; copper-chelated form unless otherwise stated
Give a plain numeric answer without units written out.

{"molecule": "Cc1c(N)nc(C(CC(N)=O)NCC(N)C(N)=O)nc1C(=O)NC(C(=O)NC(C)C(O)CC(=O)NC(C(=O)NC(OC1OC(C)C(N)C(O)C1O)C(O)c1nc(-c2nc(C(=O)NCCCN)cs2)cs1)C(C)O)C(OC1OC(CO)C(O)C(O)C1OC1OC(CO)C(O)C(OC(N)=O)C1O)c1c[nH]cn1 (centres unmarked)", "Antitumor therapeutic index B16": 127}

Now take the following molecule into account.
Qu. Item: Cc1c(N)nc(C(CC(N)=O)NCC(N)C(N)=O)nc1C(=O)NC(C(=O)NC(C)C(O)CC(=O)NC(C(=O)NC(OC1OC(C)C(N)C(O)C1O)C(O)c1nc(-c2nc(C(=O)NCCCN(CCO)CCO)cs2)cs1)C(C)O)C(OC1OC(CO)C(O)C(O)C1OC1OC(CO)C(O)C(OC(N)=O)C1O)c1c[nH]cn1 (centres unmarked) Test system: Melanotic melanoma B16 Read-out: Antitumor therapeutic index B16 Value: ?
Ans. 115

The reported measurements were obtained from patent US4314028A.
